assay: Therapeutic index, ratio of MHC10 for hemolytic activity in human RBC to MIC95 against Candida parapsilosis cgmcc2.3989; format: toxicity; settings: human red blood cells (erythrocytes), read-out: TI
Measured quantity: selectivity ratio
Give the figure only, with no unit attached.

Consider the substance H-AARIILRNRFR-NH2 . State its measured selectivity ratio.
2

For the substance H-AARIILRWFRR-NH2 , report selectivity ratio.
50.8

Tell me measured selectivity ratio for H-AARIILRYRFR-NH2 please.
8

Give recorded selectivity ratio. H-AARIILRRRFR-NH2
3.17

Item H-AARIILRARFR-NH2 : provide selectivity ratio
25.4

Annotate the substance H-AARIILRTRFR-NH2 with its measured selectivity ratio.
4

Consider the substance H-AARIILRPRFR-NH2 . State its measured selectivity ratio.
2

In one line, give reported selectivity ratio of the entry H-AARIILRFRFR-NH2 .
50.8

Give recorded selectivity ratio. H-AARIILRWRFR-NH2
50.8

Kindly indicate its recorded selectivity ratio. Item: H-AARIILRDRFR-NH2
2

Given the substance H-AARIILRGRFR-NH2 , write its reported selectivity ratio.
5.04

Specify reported selectivity ratio for the substance shown: H-AARIILRIRFR-NH2
25.4

###

system: Candida tropicalis; assay: Fungicidal activity against Candida tropicalis cgmcc2.1975 incubated for 48 hrs followed by replating on YM agar plate and measured after 48 hrs; assay type: functional
Measured quantity: MFC<=99.9 (µM)
API: value field is a number in µM; no unit string.

Return the recorded MFC<=99.9 value; entry: H-AARIILRLRFR-NH2
4

Give the reported value of MFC<=99.9 for this record: H-AARIILRIRFR-NH2
4

Return reported MFC<=99.9. Input substance: H-AARIILRTRFR-NH2
64

Give me measured MFC<=99.9, please, for this substance: H-AARIILRFRFR-NH2
4
